Reported pKd by item:
system: SARS-COV-2 RBD extracellular domain expressed with a C-terminal myc-myc-hexahistidine tag (SARS-COV-2 RBD-mmH) (SARS-CoV-2)
assayOverview: SPR Biacore, mAb captured on anti-hFc, RBD-mmH analyte, 37 C
pKd: −log10 of the molar value.

binder	pKd
mAb14286 (antibody, V domains shown) VH: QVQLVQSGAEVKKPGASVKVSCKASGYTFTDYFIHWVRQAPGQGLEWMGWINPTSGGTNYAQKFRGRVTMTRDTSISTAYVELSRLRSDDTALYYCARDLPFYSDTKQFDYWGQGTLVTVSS VL: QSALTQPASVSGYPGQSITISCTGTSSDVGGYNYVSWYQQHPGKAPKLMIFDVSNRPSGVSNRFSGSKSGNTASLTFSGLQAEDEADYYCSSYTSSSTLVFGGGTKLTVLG	8.51
mAb15160 (antibody, V domains shown) VH: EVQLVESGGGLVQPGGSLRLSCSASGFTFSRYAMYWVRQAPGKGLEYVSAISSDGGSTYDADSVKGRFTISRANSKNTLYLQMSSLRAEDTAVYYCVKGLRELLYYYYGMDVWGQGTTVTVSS VL: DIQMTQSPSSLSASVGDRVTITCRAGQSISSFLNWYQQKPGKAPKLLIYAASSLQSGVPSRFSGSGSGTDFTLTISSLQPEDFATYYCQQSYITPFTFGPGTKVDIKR	8.11
mAb15164 (antibody, V domains shown) VH: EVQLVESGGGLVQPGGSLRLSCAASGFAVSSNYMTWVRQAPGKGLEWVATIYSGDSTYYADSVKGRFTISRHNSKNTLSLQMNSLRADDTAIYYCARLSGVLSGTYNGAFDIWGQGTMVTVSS VL: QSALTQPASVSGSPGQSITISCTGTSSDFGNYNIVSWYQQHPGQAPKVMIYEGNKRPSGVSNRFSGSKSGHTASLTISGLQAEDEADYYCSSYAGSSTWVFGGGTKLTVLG	8.20
mAb14234 (antibody, V domains shown) VH: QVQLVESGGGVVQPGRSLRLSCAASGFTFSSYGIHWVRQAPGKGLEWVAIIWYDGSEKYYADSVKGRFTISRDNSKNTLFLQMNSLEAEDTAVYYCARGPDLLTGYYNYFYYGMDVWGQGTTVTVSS VL: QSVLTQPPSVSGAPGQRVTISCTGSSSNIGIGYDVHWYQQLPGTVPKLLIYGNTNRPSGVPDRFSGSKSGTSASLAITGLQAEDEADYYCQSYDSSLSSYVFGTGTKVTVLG	7.65
mAb13459 (antibody, V domains shown) VH: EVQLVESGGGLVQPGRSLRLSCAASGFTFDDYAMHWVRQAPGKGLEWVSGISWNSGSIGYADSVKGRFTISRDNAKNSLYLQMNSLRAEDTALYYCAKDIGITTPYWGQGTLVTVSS VL: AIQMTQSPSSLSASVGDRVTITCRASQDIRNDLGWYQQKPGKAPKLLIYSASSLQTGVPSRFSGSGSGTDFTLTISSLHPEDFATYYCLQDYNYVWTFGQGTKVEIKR	8.59
mAb13458 (antibody, V domains shown) VH: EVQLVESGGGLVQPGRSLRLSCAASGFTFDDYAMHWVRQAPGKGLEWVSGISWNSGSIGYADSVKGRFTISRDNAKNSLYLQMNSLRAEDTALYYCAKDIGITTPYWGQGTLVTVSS VL: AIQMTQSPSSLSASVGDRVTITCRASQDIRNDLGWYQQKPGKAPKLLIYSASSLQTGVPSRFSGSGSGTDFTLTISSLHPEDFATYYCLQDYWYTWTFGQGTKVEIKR	8.81
mAb14256 (antibody, V domains shown) VH: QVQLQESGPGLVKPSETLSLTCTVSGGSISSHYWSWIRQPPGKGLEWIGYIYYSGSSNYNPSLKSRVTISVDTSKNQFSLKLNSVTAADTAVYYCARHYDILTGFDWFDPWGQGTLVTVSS VL: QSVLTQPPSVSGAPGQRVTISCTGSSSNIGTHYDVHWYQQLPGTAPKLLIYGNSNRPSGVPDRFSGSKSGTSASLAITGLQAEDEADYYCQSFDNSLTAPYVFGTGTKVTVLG	8.08
mAb14235 (antibody, V domains shown) VH: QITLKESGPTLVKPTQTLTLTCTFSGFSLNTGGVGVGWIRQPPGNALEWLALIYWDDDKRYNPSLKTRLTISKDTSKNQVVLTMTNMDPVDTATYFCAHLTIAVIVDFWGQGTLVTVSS VL: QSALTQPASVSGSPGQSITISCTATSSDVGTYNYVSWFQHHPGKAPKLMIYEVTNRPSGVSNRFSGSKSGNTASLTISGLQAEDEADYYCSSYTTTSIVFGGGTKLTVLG	8.86
mAb15150 (antibody, V domains shown) VH: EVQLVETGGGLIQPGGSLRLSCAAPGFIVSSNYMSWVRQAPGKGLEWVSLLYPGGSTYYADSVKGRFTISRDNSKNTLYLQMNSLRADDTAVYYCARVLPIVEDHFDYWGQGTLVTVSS VL: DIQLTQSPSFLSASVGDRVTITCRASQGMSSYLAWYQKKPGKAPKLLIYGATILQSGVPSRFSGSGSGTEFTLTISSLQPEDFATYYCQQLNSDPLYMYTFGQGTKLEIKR	9.80
mAb15166 (antibody, V domains shown) VH: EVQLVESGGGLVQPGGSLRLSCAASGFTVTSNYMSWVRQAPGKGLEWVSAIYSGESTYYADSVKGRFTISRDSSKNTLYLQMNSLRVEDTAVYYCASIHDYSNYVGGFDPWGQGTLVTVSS VL: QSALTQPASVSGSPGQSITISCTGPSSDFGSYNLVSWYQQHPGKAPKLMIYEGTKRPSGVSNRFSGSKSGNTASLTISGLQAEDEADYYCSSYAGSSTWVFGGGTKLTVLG	7.02
